# Tested on: RPMI-8226
# METHOD_DESCRIPTION: NCI tumour cell line growth inhibition, 48 h
Active and inactive are the calls of the source. No stated cut-off is given here; in the data, active = GI50 up to about 1.1 µM and inactive = higher.
REPORTED_PROPERTY: GI50

COc1ccc(NC(=O)CC2S/C(=N\c3ccccc3C)NC2=O)c([N+](=O)[O-])c1 (configuration not stated); > 100 µM (inactive)
c1ccc2c[n+](Cc3ccnc4ccccc34)ccc2c1; > 100 µM (inactive)
Cc1nc2ccc(NC3OC(CO)C(O)C(O)C3O)cc2c(=O)n1-c1ccccc1 (configuration not stated); > 100 µM (inactive)
C=CC(C)(C)C(=C)C(=O)Nc1ccccc1I; 98.4 µM (inactive)
CS(=O)(=O)CS(=O)(=O)OCCCl; 198 µM (inactive)
N#CCc1ccc(C(C#N)/C(CCCC(=O)Nc2cccc([N+](=O)[O-])c2)=N\NC(=O)NN)cc1 (configuration not stated); > 100 µM (inactive)

Inquiry: Form field: reported GI50 of Cc1cccc(NC(=O)CC(=O)N2N=C(N3c4ccccc4Sc4ccccc43)CC2c2ccccc2)c1 (configuration not stated)
Reply text: > 100 µM (inactive)

* * *

# Test system: DLD-1
# METHOD_DESCRIPTION: NCI tumour cell line growth inhibition, 48 h
Active and inactive are the calls of the source. Rule as the data show it: active = GI50 up to about 1.1 µM and inactive = higher.
The categories you may choose from are active, inactive

Previously resolved entries follow.
COCC(C#N)NC1CC(OC2CC(O)(C(=O)CO)Cc3c(O)c4c(c(O)c32)C(=O)c2c(OC)cccc2C4=O)OC(C)C1O (stereo not drawn); active
C/C(CC(=O)Nc1ccc([N+](=O)[O-])cc1)=N\NC(N)=O; inactive
O=C(CC1(O)C(=O)Nc2ccccc21)c1ccccc1Cl (stereo not drawn); inactive
N#CCCN(c1ccc(/C=C2\N=C(c3ccc(Cl)cc3)OC2=O)cc1)S(=O)(=O)c1ccccc1; inactive
C/C(CC(=O)NC1=CC=C(NC(=O)C/C(C)=N\Nc2ccccc2)CC1)=N/Nc1ccccc1; inactive

Inquiry: Tell me the recorded outcome of this test for "Cc1cccc(NC(=O)CSc2nnc(Cc3ccccc3)o2)c1" .
Reply text: inactive

Inquiry: Tell me the recorded outcome of this test for Cn1c(=O)oc2cc(C3CCC(=O)N3Cc3csc(-c4ccccc4)n3)ccc21 (stereo not drawn) .
Reply text: inactive

Inquiry: Tell me the recorded outcome of this test for COC(=O)C(=O)C(CC(=O)Nc1c(C)cccc1C)C(=O)OC (stereo not drawn) .
Reply text: inactive

Inquiry: Tell me the recorded outcome of this test for "CC(=O)c1ccc(-c2ccc(C(C)=O)s2)s1" .
Reply text: inactive

Inquiry: Tell me the recorded outcome of this test for "CCc1cccc(C)c1NC(=O)CCc1n[nH]c(=S)o1" .
Reply text: inactive

Inquiry: Tell me the recorded outcome of this test for "CC(C)(C)c1ccc2c(c1)OP1(Oc3c(Cl)cc(Cl)c4cccnc34)(O2)Oc2ccc(C(C)(C)C)cc2O1" .
Reply text: inactive

Inquiry: Tell me the recorded outcome of this test for "Brc1ccccc1/C=N\C12CC3CC(CC(C3)C1)C2" .
Reply text: inactive

Inquiry: Tell me the recorded outcome of this test for "CS(=O)(=O)CS(=O)(=O)OCCCl" .
Reply text: inactive

* * *

# Test system: RXF 393
# METHOD_DESCRIPTION: NCI tumour cell line growth inhibition, 48 h
Calls of active or inactive are those of the source. Cut-off read from the data, not from the text of the source: active = GI50 up to about 1.1 µM and inactive = higher.
The categories you may choose from are True = active, False = inactive

Cc1ccc2c(c1)SC(c1cc3c(cc1Br)OCO3)S2 (stereo not drawn); False
O=Cc1ccccc1CCn1c(=O)c2cc3c(=O)n(CCc4ccccc4C=O)c(=O)c3cc2c1=O; False
Nc1nncc2c1c(Br)cn2C1OC(CO)C(O)C1O (stereo not drawn); False
NC1CC(=O)c2c(I)sc(I)c21 (stereo not drawn); False
O=C1CCC(=O)N2CCCCN12; False

Inquiry: Tell me the recorded outcome of this test for "C/C(=N/NC(=S)N1CC2CCC(CC2)C1)c1cnccn1" .
Reply text: True

Inquiry: Tell me the recorded outcome of this test for CC(C)(C)OC(=O)NC(Cc1ccc(OC(C)(C)C)cc1)C(=O)N[C@H]1CCC[C@H]1C(=O)NC(Cc1ccccc1)C(=O)N1CCCC1C(N)=O (stereo partly drawn) .
Reply text: False

Inquiry: Tell me the recorded outcome of this test for CCOC(=O)N1N=NC2C3OC(C[C@@]3(C#N)OC(C)=O)[C@H]21 (stereo partly drawn) .
Reply text: False

Inquiry: Tell me the recorded outcome of this test for COc1cccc(CC(C)NCC(O)c2ccc(O)c(O)c2)c1 (stereo not drawn) .
Reply text: False

Inquiry: Tell me the recorded outcome of this test for Cc1cccc(NC(=O)CC(=O)N2N=C(N3c4ccccc4Sc4ccccc43)CC2c2ccccc2)c1 (stereo not drawn) .
Reply text: False

Inquiry: Tell me the recorded outcome of this test for "CCOC(=O)c1c(N)nn2c1cc1cccccc12" .
Reply text: False

Inquiry: Tell me the recorded outcome of this test for "CCCc1n[nH]c(CCC(=O)N(Cc2ccccc2)Cc2ccccc2)c1CC" .
Reply text: False

* * *

compounds and their reported GI50
# Test system: KM12
# METHOD_DESCRIPTION: NCI tumour cell line growth inhibition, 48 h
Active and inactive are the calls of the source. Cut-off read from the data, not from the text of the source: active = GI50 up to about 1.1 µM and inactive = higher.

Inquiry: Form field: reported GI50 of CN1N(c2ccccc2)C(=O)C2=NC=C(C#N)C(=N)C21C (stereo not drawn)
Reply text: > 100 µM (inactive)

Inquiry: Form field: reported GI50 of "COc1ccc2nc(-n3c(/C=C/c4ccccc4O)nc4ccccc4c3=O)sc2c1"
Reply text: 64.4 µM (inactive)

Inquiry: Form field: reported GI50 of COc1ccc2c(c1)N(CCC1CCCCN1C)c1ccccc1S2 (stereo not drawn)
Reply text: 10.8 µM (inactive)

Inquiry: Form field: reported GI50 of "CSC(=O)/C=C1\SS/C(=C\C(=O)SC)S1"
Reply text: 5.05 µM (inactive)

Inquiry: Form field: reported GI50 of "O=C1CCC(=O)N2CCCCN12"
Reply text: > 100 µM (inactive)

* * *

# Tested on: CCRF-CEM
# METHOD_DESCRIPTION: NCI tumour cell line growth inhibition, 48 h
Calls of active or inactive are those of the source. Rule as the data show it: active = GI50 up to about 1.1 µM and inactive = higher.
REPORTED_PROPERTY: GI50

For orientation, consider the following solved cases.
CC(=O)c1c(-c2ccccc2)c(-c2ccc(OCCN(C)C)cc2)n2ccccc12; 21 µM (inactive)
c1ccc2c[n+](Cc3ccnc4ccccc34)ccc2c1; > 100 µM (inactive)
c1ccc2c(c1)Cc1c(Cc3csc4ccccc34)ccc3cccc-2c13; > 100 µM (inactive)
C/C(=C\c1ccccc1)C(=O)NCc1ccc(C(=O)NCCc2c[nH]c3ccccc23)cc1; 2.39 µM (inactive)
Brc1ccccc1/C=N\C12CC3CC(CC(C3)C1)C2; 4.54 µM (inactive)

Here's the next entry for you.
Inquiry: Form field: reported GI50 of CC(C)N1CCN(c2ccc(OCC3COC(Cn4cncn4)(c4ccc(Cl)cc4Cl)O3)cc2)CC1 (centres undefined)
Reply text: 11.5 µM (inactive)

* * *

# Tested on: OVCAR-8
# METHOD_DESCRIPTION: NCI tumour cell line growth inhibition, 48 h
The source made the active and inactive calls. Rule as the data show it: active = GI50 up to about 1.1 µM and inactive = higher.
The categories you may choose from are yes for active, no for inactive

Inquiry: Tell me the recorded outcome of this test for "C[N+](C)([O-])Cc1cccc(NC(=O)c2ccc(C(=O)Nc3cccc(C[N+](C)(C)[O-])c3)cc2)c1" .
Reply text: no

Inquiry: Tell me the recorded outcome of this test for "COC(=O)[C@@H]1C(=O)O[C@@H](c2cc(OC)c(OC)cc2OC)[C@@H]1C(=O)OC.COC(=O)[C@H]1C(=O)O[C@@H](c2cc(OC)c(OC)cc2OC)[C@@H]1C(=O)OC" .
Reply text: no

* * *

# System: SF-295
# METHOD_DESCRIPTION: NCI tumour cell line growth inhibition, 48 h
Active and inactive are the calls of the source. No stated cut-off is given here; in the data, active = GI50 up to about 1.1 µM and inactive = higher.
The categories you may choose from are active, inactive

Inquiry: Tell me the recorded outcome of this test for "CC1(C)OC(=O)CC12CCN(Cc1ccccc1)CC2" .
Reply text: inactive

Inquiry: Tell me the recorded outcome of this test for "C/C(CC(=O)NC1=CC=C(NC(=O)C/C(C)=N\Nc2ccccc2)CC1)=N/Nc1ccccc1" .
Reply text: inactive

Inquiry: Tell me the recorded outcome of this test for "O=c1[nH]nc(-c2ccccc2)n1/N=C/c1ccccc1O" .
Reply text: inactive

Inquiry: Tell me the recorded outcome of this test for CC1CN(c2cc3c(cc2F)c(=O)c(C(=O)O)cn3-c2ccc(N3CCN(C)CC3)cn2)CC(C)N1 (stereo unspecified) .
Reply text: inactive

Inquiry: Tell me the recorded outcome of this test for "CCc1nc(N)nc(N)c1-c1ccc(NCCc2ccccc2)c([N+](=O)[O-])c1" .
Reply text: active

Inquiry: Tell me the recorded outcome of this test for COC1=CCC2=C(CCN(C(=O)C3CC3)C2Cc2ccc(OC)c(O)c2)C1 (stereo unspecified) .
Reply text: inactive

Inquiry: Tell me the recorded outcome of this test for CC[C@]1(O)CC(OC2CC(N(C)C)C(O)C(C)O2)c2c(cc3c(c2O)C(=O)c2c(O)cccc2C3=O)[C@@H]1C(=O)OC (stereo partly specified) .
Reply text: active

Inquiry: Tell me the recorded outcome of this test for "CCOP(=O)(OCC)/C(C#N)=C/c1[nH]cnc1C" .
Reply text: inactive

Inquiry: Tell me the recorded outcome of this test for "CC(C)(C)NC(=O)/C(=C\Sc1ccccc1)c1ccccc1" .
Reply text: inactive

Inquiry: Tell me the recorded outcome of this test for "CC(C)=CCC[C@@H](C)c1c2nc3ccccc3[nH]c-2c(C)c(=O)c1O" .
Reply text: active

Inquiry: Tell me the recorded outcome of this test for "COc1ccccc1C(=O)c1c(N2CCCCC2)c(=O)c1=O" .
Reply text: inactive
